From: the RNAGym collection of RNA variant scans (doi:10.7554/elife.90254)

B1: LINE1-full (parent)
chain: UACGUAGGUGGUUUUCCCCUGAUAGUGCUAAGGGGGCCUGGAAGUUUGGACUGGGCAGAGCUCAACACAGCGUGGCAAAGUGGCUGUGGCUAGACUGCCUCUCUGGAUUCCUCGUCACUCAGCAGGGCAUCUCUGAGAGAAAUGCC

variants of: B1; assay: self-cleavage, relative activity (ratio to wild type); higher = more cleavage; in vitro, sequencing; the parent is a self-cleaving ribozyme
// thresholds for self-cleavage classes: low: < 0.4; moderate: ≥ 0.4 and < 1; high: ≥ 1

INSERT INTO results (variant, assigned_class) VALUES
  ('U100A U143C', 'moderate'),
  ('G60A U119A', 'low'),
  ('C19U A50G', 'moderate'),
  ('G33U A77C', 'moderate'),
  ('G48A U132C', 'high'),
  ('C84A C145U', 'low'),
  ('U15C A142C', 'high'),
  ('U12C U96A', 'low'),
  ('G72A A142G', 'high'),
  ('A64G U112G', 'low'),
  ('A64G A107C', 'low'),
  ('U39A A77U', 'high'),
  ('U12C U46C', 'high'),
  ('A31U U73A', 'high'),
  ('U12G G40A', 'high'),
  ('G33U G75U', 'moderate'),
  ('U14A C99U', 'moderate'),
  ('C51A U115C', 'high'),
  ('U46A A67U', 'low'),
  ('U14G A79G', 'moderate'),
  ('G35A A92C', 'low');
